tested on: nucleoside uptake (3H-Thymidine); assay: Rel.Uptake: nucleoside uptake, single concentration assay, cell line as indicated in each table; type: cell-based; conditions: 293T, nucleoside uptake, response relative to DMSO
value_type: Rel. Uptake, 293T

1. COc1ccc(CC[C@H]2OC(=O)[C@@H]3CCCCN3C(=O)C(=O)C(C)(C)CNC(=O)C=CCCN(C)C(=O)[C@H](CC(C)C)N(C)C(=O)[C@H]3CCCN3C(=O)[C@H](Cc3ccccc3)N(C)C(=O)C(c3ccccc3)NC(=O)CCC(=O)Nc3cccc2c3)cc1OC (some centres unmarked) [Compound 1555]	high
2. COc1ccc(CC[C@H]2OC(=O)[C@@H]3CCCCN3C(=O)C(=O)C(C)(C)COC(=O)C=CCCN(C)C(=O)[C@@H](Cc3ccccc3)NC(=O)CN(C)C(=O)[C@@H](Cc3ccccc3)NC(=O)[C@H](Cc3ccc(O)cc3)N(C)C(=O)COc3cccc2c3)c(O)c1OC [Compound 1584]	low

----------
test system: nucleoside uptake (3H-Thymidine); experiment: Nucleoside uptake assay (uptake) using 3H-Thymidine, IC50, cell line as indicated in each table (none given in Table 8); assay type: cell-based; details: 3H-Thymidine uptake; cell line not given
Reported IC50 values for the following compounds.
value_type: IC50 (µM)

1) COc1ccc(CC[C@H]2OC(=O)[C@@H]3CCCCN3C(=O)C(=O)C(C)(C)COC(=O)C=CCCN(C)C(=O)[C@@H](C)N(C)C(=O)[C@@H]3CCCN3C(=O)[C@@H](Cc3ccccc3)N(C)C(=O)CNC(=O)COc3cccc2c3)cc1OC [Compound 1626]	0.155
2) COc1ccc(CC[C@H]2OC(=O)[C@@H]3CCCCN3C(=O)C(=O)C(C)(C)COC(=O)/C=C/CCN(C)C(=O)[C@H](C(C)C)N(C)C(=O)[C@@H]3CCCN3C(=O)[C@@H](Cc3ccccc3)N(C)C(=O)[C@H](Cc3ccccc3)NC(=O)CCC(=O)Nc3cccc2c3)cc1OC [Compound 1609]	0.055
3) CCCC[C@H]1C(=O)N(C)CC/C=C/C(=O)OCC(C)(C)C(=O)C(=O)N2CCCC[C@H]2C(=O)O[C@H](CCc2ccc(OC)c(OC)c2)c2cccc(c2)OCC(=O)NCC(=O)N(C)[C@H](Cc2ccccc2)C(=O)N2CCC[C@H]2C(=O)N1C [Compound 1620]	0.0139
4) COc1ccc(CC[C@H]2OC(=O)[C@@H]3CCCCN3C(=O)C(=O)C(C)(C)COC(=O)/C=C/CCN(C)C(=O)[C@H](C(C)C)N(C)C(=O)[C@@H]3CCCN3C(=O)[C@@H](Cc3ccccc3)N(C)C(=O)CNC(=O)CCC(=O)Nc3cccc2c3)cc1OC [Compound 1605]	0.0279
5) COCC[C@@H]1NC(=O)COc2cccc(c2)[C@@H](CCc2ccc(OC)c(OC)c2)OC(=O)[C@@H]2CCCCN2C(=O)C(=O)C(C)(C)COC(=O)/C=C/CCN(C)C(=O)[C@H](C(C)C)N(C)C(=O)[C@@H]2CCCN2C(=O)[C@@H](Cc2ccccc2)N(C)C1=O [Compound 1613]	0.0595

----------
test system: nucleoside uptake (3H-Thymidine); assay: Nucleoside uptake assay (uptake) using 3H-Thymidine, IC50, cell line as indicated in each table (none given in Table 8); type: cell-based; conditions: 3H-Thymidine uptake; cell line not given
value_type: IC50 (nM)

1) CCC[C@H]1C(=O)N(C)CCC=CC(=O)OCC(C)(C)C(=O)C(=O)N2CCCC[C@H]2C(=O)O[C@H](CCc2ccc(OC)c(OC)c2)c2cccc(c2)OCC(=O)NCC(=O)N(C)[C@H](Cc2ccccc2)C(=O)N2CCC[C@H]2C(=O)N1C	42.3
2) COc1ccc(CC[C@H]2OC(=O)[C@@H]3CCCCN3C(=O)C(=O)C(C)(C)COC(=O)/C=C/CCN(C)C(=O)[C@H](C(C)C)N(C)C(=O)[C@@H]3CCCN3C(=O)[C@@H](Cc3ccccc3)N(C)C(=O)[C@H](C)NC(=O)CCC(=O)Nc3cccc2c3)cc1OC	23.7
3) CCCC[C@H]1C(=O)N(C)CCC=CC(=O)OCC(C)(C)C(=O)C(=O)N2CCCC[C@H]2C(=O)O[C@H](CCc2ccc(OC)c(OC)c2)c2cccc(c2)OCC(=O)N[C@@H](C)C(=O)N(C)[C@H](Cc2ccccc2)C(=O)N2CCC[C@H]2C(=O)N1C	9.76
4) COc1ccc(CC[C@H]2OC(=O)[C@@H]3CCCCN3C(=O)C(=O)C(C)(C)COC(=O)C=CCCN(C)C(=O)C3(CCCCC3)NC(=O)[C@@H]3CCCN3C(=O)[C@@H](Cc3ccccc3)N(C)C(=O)CNC(=O)COc3cccc2c3)cc1OC	262

----------
tested on: nucleoside uptake (3H-Thymidine); assay: Rel.Uptake: nucleoside uptake, single concentration assay, cell line as indicated in each table; format: cell-based; conditions: 293T, nucleoside uptake, response relative to DMSO
value_type: Rel. Uptake, 293T

1. COc1ccc(CC[C@H]2OC(=O)[C@@H]3CCCCN3C(=O)C(=O)C(C)(C)COC(=O)C=CCCN(C)C(=O)[C@@H](Cc3ccccc3)NC(=O)CN(C)C(=O)[C@@H](Cc3ccccc3)NC(=O)[C@H](Cc3ccc(O)cc3)N(C)C(=O)COc3cccc2c3)c(OC)c1OC	medium
2. COc1cc(O)c(CC[C@H]2OC(=O)[C@@H]3CCCCN3C(=O)C(=O)C(C)(C)COC(=O)C=CCCN(C)C(=O)[C@@H](Cc3ccccc3)NC(=O)CN(C)C(=O)[C@@H](Cc3ccccc3)NC(=O)[C@H](Cc3ccc(O)cc3)N(C)C(=O)COc3cccc2c3)cc1OC	low
3. CCCC[C@H]1C(=O)N[C@@H](Cc2ccc3ccccc3c2)C(=O)N(C)[C@@H](COC(C)(C)C)C(=O)NCC(=O)N(C)CCC=CC(=O)OCC(C)(C)C(=O)C(=O)N2CCCC[C@H]2C(=O)O[C@H](CCc2ccc(OC)c(OC)c2)c2cccc(c2F)OCC(=O)N1C	high
4. COc1ccc(CC[C@H]2OC(=O)[C@@H]3CCCCN3C(=O)C(=O)C(C)(C)COC(=O)C=CCCN(C)C(=O)[C@H](CC(C)C)N(C)C(=O)[C@H]3CCCN3C(=O)[C@H](Cc3ccc(CNC(=O)Cc4ccccc4)cc3)NC(=O)[C@H](c3ccccc3)NC(=O)CCC(=O)Nc3cccc2c3)cc1OC	Med
5. COc1ccc(CC[C@H]2OC(=O)[C@@H]3CCCCN3C(=O)C(=O)C(C)(C)COC(=O)C=CCCN(C)C(=O)[C@@H](Cc3ccccc3)NC(=O)CN(C)C(=O)[C@@H](Cc3ccccc3)NC(=O)[C@H](Cc3ccc(O)cc3)N(C)C(=O)COc3cccc2c3F)cc1OC	medium
6. COc1ccc(CC[C@H]2OC(=O)[C@@H]3CCCCN3C(=O)C(=O)C(C)(C)COC(=O)C=CCCN(C)C(=O)[C@H](CC(C)C)N(C)C(=O)[C@H]3CCCN3C(=O)[C@H](Cc3ccc(C(=O)Nc4ccccc4)cc3)NC(=O)[C@H](c3ccccc3)NC(=O)CCC(=O)Nc3cccc2c3)cc1OC	medium

----------
system: nucleoside uptake (3H-Thymidine); test: Rel.Uptake: nucleoside uptake, single concentration assay, cell line as indicated in each table; assay type: cell-based; conditions: 293T, nucleoside uptake, response relative to DMSO
value_type: Rel. Uptake, 293T

1) COc1ccc(CC[C@H]2OC(=O)[C@@H]3CN(C(=O)OCC4c5ccccc5-c5ccccc54)CCN3C(=O)C(=O)C(C)(C)COC(=O)C=CCCN(C)C(=O)[C@@H](Cc3ccccc3)NC(=O)CN(C)C(=O)[C@@H](Cc3ccccc3)NC(=O)[C@H](Cc3ccc(O)cc3)N(C)C(=O)COc3cccc2c3)cc1OC [Compound 1572]	low

----------
system: nucleoside uptake (3H-Thymidine); assay: Nucleoside uptake assay (uptake) using 3H-Thymidine, IC50, cell line as indicated in each table (none given in Table 8); assay type: cell-based; settings: 3H-Thymidine uptake; cell line not given
value_type: IC50 (nM)

1) COc1ccc(CC[C@H]2OC(=O)[C@@H]3CCCCN3C(=O)C(=O)C(C)(C)COC(=O)/C=C/CCN(C)C(=O)[C@H](C)N(C)C(=O)[C@@H]3CCCN3C(=O)[C@@H](Cc3ccccc3)N(C)C(=O)[C@H](C)NC(=O)COc3cccc2c3)cc1OC	66.7
2) CCC[C@@H]1NC(=O)CCC(=O)Nc2cccc(c2)[C@@H](CCc2ccc(OC)c(OC)c2)OC(=O)[C@@H]2CCCCN2C(=O)C(=O)C(C)(C)COC(=O)/C=C/CCN(C)C(=O)[C@H](C(C)C)N(C)C(=O)[C@@H]2CCCN2C(=O)[C@@H](Cc2ccccc2)N(C)C1=O	18
3) CC[C@H](C)[C@H]1C(=O)N(C)CC/C=C/C(=O)OCC(C)(C)C(=O)C(=O)N2CCCC[C@H]2C(=O)O[C@H](CCc2ccc(OC)c(OC)c2)c2cccc(c2)NC(=O)CCC(=O)N[C@@H](C)C(=O)N(C)[C@H](Cc2ccccc2)C(=O)N2CCC[C@H]2C(=O)N1C	34.4
4) COc1ccc(CC[C@H]2OC(=O)[C@@H]3CCCCN3C(=O)C(=O)C(C)(C)COC(=O)C=CCCN(C)C(=O)[C@H](CC(C)C)N(C)C(=O)[C@@H]3CCCN3C(=O)[C@@H](Cc3ccccc3)N(C)C(=O)[C@H](C)NC(=O)CCC(=O)Nc3cccc2c3)cc1OC	31.4
